experiment: Noncompartmental pharmacokinetic parameters (Cmax, Tmax, AUC, Racc) in QD and BID cohorts of Form B; format: in vivo, human; conditions: human, plasma, oral, 400 mg, Compound III; 400 mg QD of Form B; Cohort 3; Day 29; read-out: AUClast (Mean)
PROPERTY NAME: AUC(0-t) (ng·h/mL)
Give the value in ng·h/mL but do not write ng·h/mL after it.

Input: Report AUC(0-t) for O=C1NCC2(CCCCC2)n2c1cc1cnc(Nc3ccc(N4CCNCC4)cn3)nc12 [Compound III] please.
Output: 42.6

###

experiment: Steady-state AUC0-24,ss, (AUC0-24,ss)/dose, half-life and time to steady state: Compound I versus palbociclib, ribociclib, abemaciclib; format: in vivo, human; settings: human, plasma, oral; 300 mg QD of Form B of Compound II, Day 29; read-out: Mean AUC0-24,ss
PROPERTY NAME: AUC(0-t)

Input: Report AUC(0-t) for CC(C)N1CCN(c2ccc(Nc3ncc4cc5n(c4n3)C3(CCCCC3)CNC5=O)nc2)CC1 please.
Output: 592 ng·h/mL
